Biological target: T1, RBFOX1 RRM (Homo sapiens, UniProt Q9NWB1 109-208)
T1 sequence: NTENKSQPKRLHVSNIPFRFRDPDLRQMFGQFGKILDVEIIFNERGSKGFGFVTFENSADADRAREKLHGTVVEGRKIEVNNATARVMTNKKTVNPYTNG
Assay: EMSA; HiTS-Eq, 1 nM pool, 10 min; buffer printed only for the single-RNA assays: 10 mM Tris pH 7.5, 150 mM NaCl, 3.4 mM EDTA, 0.001% NP-40, 30 C
Settings: tags: His6 N-terminal (pET28a); label: 5' 32P
The full ranking holds about 16,000 sequences; the median of “ka relative to ugcaugu” is about 0.0091, and the highest 2% start at about 0.032. The entries come from a sample that favours the highest values as a whole.

- binder: "GUGCAUG (DNA:RNA) RNA: GGGAGACCGGAAUUCAGAUUGUCCGUGCAUGUUAAAUCCCGUCGUAGCCACCA DNA 1: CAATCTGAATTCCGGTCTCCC DNA 2: TGGTGGCTACGACGGGATT"
  binding signal: "1 KA relative to UGCAUGU"
- binder: "UUGCAUA (DNA:RNA) RNA: GGGAGACCGGAAUUCAGAUUGUCCUUGCAUAUUAAAUCCCGUCGUAGCCACCA DNA 1: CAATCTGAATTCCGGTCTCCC DNA 2: TGGTGGCTACGACGGGATT"
  binding signal: "0.0139 KA relative to UGCAUGU"
